Where these numbers come from: the Deep4Chem optical property database

# TEST METHOD NOTES: solvent given as SMILES
# EXPERIMENTAL CONDITIONS: in CS(C)=O
A collection of compounds and their measured absorption maximum

[
  {
    "SMILES": "CC(=O)O[B-]1(OC(C)=O)OC(/C=C/c2cccc3ccccc23)=CC(/C=C/c2cccc3ccccc23)=[O+]1",
    "absorption maximum, nm": 478
  },
  {
    "SMILES": "CC1(C)C(/C=C/c2cc3ccc(O)cc3oc2=O)=[N+](CCCS(=O)(=O)[O-])c2ccccc21",
    "absorption maximum, nm": 630
  },
  {
    "SMILES": "Cc1ccc2c(c1)NC(=O)CC(=O)N2",
    "absorption maximum, nm": 294
  },
  {
    "SMILES": "CC(=O)c1c2c(cc3cc(N(C)C)ccc13)CCC2",
    "absorption maximum, nm": 374
  },
  {
    "SMILES": "O=C(O)COc1cccc(-c2c3nc(cc4ccc([nH]4)c(-c4cccc(OCC(=O)O)c4)c4nc(cc5ccc2[nH]5)CC4)CC3)c1",
    "absorption maximum, nm": 736
  }
]
